SYSTEM: T1, His-tagged cynomolgus monkey TIGIT (Acro Biosystems #TIT-05223) (cynomolgus monkey, UniProt A0A7N9I9V4 89-209)
T1 construct: Bought protein; also called cyno TIGIT; cynomolgus TIGIT; not shown: His tag
T1 sequence (A0A7N9I9V4 entry or part of it): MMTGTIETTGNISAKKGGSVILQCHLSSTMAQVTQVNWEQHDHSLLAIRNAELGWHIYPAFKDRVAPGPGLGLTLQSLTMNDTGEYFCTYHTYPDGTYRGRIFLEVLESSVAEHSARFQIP
EXPERIMENTAL_PROTOCOL: ELISA, coated His-TIGIT, 1 ug/ml
ENDPOINT_NAME: Elisa OD450 (OD450)

>>> number("43352p1.A11 (scFv, V domains shown) VH: DVQLVESGGGVVRPGESLRLSCAASGFTFSSHAMSWVRQAPGEGLEWVSLTSGNGVSAYYADSVKGRFTISRDNSKNTLYLQMNSLSAEDTAIYYCARGTYLISFFDYWGLGTLVTVSS VL: QSVLTQPPSASGTPGQRVTISCSGISAKIGNNYVSWYQQLPGTAPKLLIYFNNQRPSGVPDRFSGSKSGTSASLAISGLQSEDEADYYCASWDDSLNAWLFGGGTKLTVL")
0.048
>>> number("43645p1.B8 (scFv, V domains shown) VH: EVQLLESGGGLVQPGGSLRLSCAASGFTFSDFWMSWVRQAPGKGLEWVSSIINIQTYDYATYYADSVKGRFTISRDNSKNTLYLQMNSLRAEDTAIYYCAKDVAPGLPGGMDVWGQGTTVTVSS VL: QSVLTQPPSASGTPGQRVTISCSGSNSNIRNNFVSWYQHLPGMAPKLLIYGNSQRPSGVPDRFSGSKSGTSASLAISGLQSEDEADYYCTSWDFSVNGWVFGGGTKLTVL")
1.38
>>> number("43586p1.2.C9 (scFv, V domains shown) VH: EVQLLESGGGLVQPGGSLRLSCAASGFTFDDYVMSWVRQAPGKGLEWVSLINWNGDKTYYADSVKGRFTISRDNSKNTLYLQMNSLRAEDTAIYYCAKHWIVFQYGMDVWGQGTTVTVSS VL: QSVLTQPPSASGTPGQRVTISCSGSISNIETKYVSWYQQLPGTAPKLLIYNSDQRPSGVPDRFSGSKSGTSASLAISGLQSEDEADYYCVSWDASLKSWVFGGGTKLTVL")
1.61
>>> number("43586p2.G01 (scFv, V domains shown) VH: EVQLLESGGGLVQPGGSLRLSCAASGFTVSSNWMSWVRQAPGKGLEWVSTTSSSSWNNYTYYADSVKGRFTISRDNSKNTLYLQMNSLRAEDTAVYYCAKGSYGMDVWGQGTTVTVSS VL: QSVLTQPPSASGTPGQRVTISCSGSNSNIGAKYLYWYQQLPGTAPKLLIYLNDRRPSGVPDRFSGSKSGTSASLAISGLQSEDEADYYCAFWDDHLKGWVFGGGTKLTVL")
1.15
>>> number("43352p1.D11 (scFv, V domains shown) VH: DVQLVESGGGVVRPGESLRLSCAASGFTFSSHAMSWVRQAPGEGLEWVSLISGNGVSAYYADSVKGRFTISRDNSKNTLYLQMNSLSAEDTAIYYCARGTYLISFFDYWGLGTLVTVSS VL: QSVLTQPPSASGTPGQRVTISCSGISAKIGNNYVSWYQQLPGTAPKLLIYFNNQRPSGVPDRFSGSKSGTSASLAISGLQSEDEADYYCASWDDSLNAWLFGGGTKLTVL")
0.044
